The reported measurements were obtained from the supplement of paper PMC10201428.

# relative integration efficiency (log2) listing for each entry below
Tested on: VchCAST RNA-guided transposition machinery (E. coli BL21(DE3) host, lacZ target)
METHOD NOTES: relative integration efficiency (T-LR orientation) vs wild-type transposon end (log2 (normalized fold change)); transposon end mutated: right end (5 bp flank + 75 bp right end); higher = more efficient transposition
// keep it numeric: no unit symbol after the value

Consider the reported relative integration efficiency (log2) for these sequences:
>>> numeric_result("ACATTTGTTGATACAACCATAAAAGGATTATTACACCCATTAATTGATAATTATCACACCCAATTTAACTATAACGCTCTGATCATAGTCAGACCAACATTGCTACGACCCGTATTCGCACCGACAC")
1.27
>>> numeric_result("ACATTTGTTGATACAACCATAAAATGATAATTACACCCATAAATTGCGCCTTATCACACCCATAAATTGATATTGCCTCTGATCATAGTCAGACCAACATTGCTACGACCCGTATTCGCACCGACAC")
-0.939
>>> numeric_result("ACATTTGTTGATACTTGGATAAAATGATAATTACACCCATAAATTGATAATTATCACACCCATAAATTGATATTGCCTCTGATCATAGTCAGACCAACATTGCTACGACCCGTATTCGCACCGACAC")
-1.07
>>> numeric_result("ACATTTGTTGATACAACCATAAAGTGATATTTACACCCATAAATTGATATTGCTCACACCCATAAATTGATATTGCCTCTGATCATAGTCAGACCAACATTGCTACGACCCGTATTCGCACCGACAC")
0.438
>>> numeric_result("ACATTTGTTGATACAACCATAAAATGATAATTACACCCATAAATTGATAATTATCACACCCATAAATTGATATTGCCTCTCGCGAGAGGCCGGCAGCCGTCTGGCGTCGGGTGGCGGGCACCGACAC")
0.646
>>> numeric_result("ACATTTGTTGATACAACCATAAAACGATAATTACACCCATAAATGGATCATTATCACACCCAATTTAACTATAACGCTCTGATCATAGTCAGACCAACATTGCTACGACCCGTATTCGCACCGACAC")
1.06

Asked: Bench note: what relative integration efficiency (log2) did ACATTTGTTGATACAACCATAAAAGGATCATTACCCCCATCAATTGATAATTATCCCACCCAATTTAACTATAACGCTCTGATCATAGTCAGACCAACATTGCTACGACCCGTATTCGCACCGACAC show?
Given back: -0.858

Asked: Bench note: what relative integration efficiency (log2) did ACATTTGTAAAAAAAACCATACGTTGATTTTACGAAACCATACGCTGAAATAATCACAACCATACATTGAAATTGCCTCTGATCATAGTCAGACCAACATTGCTACGACCCGTATTCGCACCGACAC show?
Given back: -4.99

Asked: Bench note: what relative integration efficiency (log2) did ACATTTGTTGATACAACCATAAAATGATAATTACACCCATAAATTGATAATTATCACACCACGCAATTGATATTGCCTCTGATCATAGTCAGACCAACATTGCTACGACCCGTATTCGCACCGACAC show?
Given back: 2.1

Asked: Bench note: what relative integration efficiency (log2) did ACATTTGTTGATACACCCATAAATTGATATTGCCAACCATAAGTTGATATTTTTCACAACCATATATTGATATCTCCTCTGATCATAGTCAGACCAACATTGCTACGACCCGTATTCGCACCGACAC show?
Given back: 0.0942
